applied conditions: buffer; pH 7.4; 200.0 µM
readout type: solubility kinetic (mg/mL)

>  <molecule>
O=C(CCCl)Nc1nc2c(s1)CCc1ccccc1-2

>  <readout type>
solubility kinetic

>  <units>
mg/mL

>  <value prefix>
=

>  <quantitative readout>
0.0072

$$$$
>  <molecule>
CN1CCCC(OC(=O)c2ccc(Cl)cc2)C1.Cl (configuration not stated)

>  <readout type>
solubility kinetic

>  <units>
mg/mL

>  <value prefix>
=

>  <quantitative readout>
0.0415

$$$$
>  <molecule>
Cc1c(C(=O)Nc2ccccn2)oc2c(Cl)cccc12

>  <readout type>
solubility kinetic

>  <units>
mg/mL

>  <value prefix>
=

>  <quantitative readout>
0.0094

$$$$
>  <molecule>
O=S(=O)(NCc1csc(-c2cccs2)n1)c1ccccc1

>  <readout type>
solubility kinetic

>  <units>
mg/mL

>  <value prefix>
=

>  <quantitative readout>
0.0406

$$$$
>  <molecule>
C#Cc1cccc(NC(=O)C2CCN(C(C)=O)CC2)c1

>  <readout type>
solubility kinetic

>  <units>
mg/mL

>  <value prefix>
>

>  <quantitative readout>
0.0405

$$$$
>  <molecule>
O=C(O)CCCN1C(=O)c2cccc3cccc(c23)C1=O

>  <readout type>
solubility kinetic

>  <units>
mg/mL

>  <value prefix>
=

>  <quantitative readout>
0.0318

$$$$
>  <molecule>
CCOc1ccc(NC(=O)c2nc(SCC)ncc2Cl)cc1

>  <readout type>
solubility kinetic

>  <units>
mg/mL

>  <value prefix>
<

>  <quantitative readout>
0.0002

$$$$
>  <molecule>
COc1ccc(CN2CCc3ccccc3C2)cc1Br

>  <readout type>
solubility kinetic

>  <units>
mg/mL

>  <value prefix>
=

>  <quantitative readout>
0.0113

$$$$
>  <molecule>
COCCNC(=O)/C(C#N)=C/c1ccc(O)c([N+](=O)[O-])c1

>  <readout type>
solubility kinetic

>  <units>
mg/mL

>  <value prefix>
>

>  <quantitative readout>
0.0437

$$$$
>  <molecule>
O=C(Nc1ncccc1O)c1ccc2c(c1)OCO2

>  <readout type>
solubility kinetic

>  <units>
mg/mL

>  <value prefix>
>

>  <quantitative readout>
0.0387

$$$$
>  <molecule>
O=C(Nc1ccccc1-c1ccccc1)c1ccccc1[N+](=O)[O-]

>  <readout type>
solubility kinetic

>  <units>
mg/mL

>  <value prefix>
=

>  <quantitative readout>
0.0168

$$$$
>  <molecule>
Cc1cccc(C(=O)NCCNC(=O)c2ccccn2)c1

>  <readout type>
solubility kinetic

>  <units>
mg/mL

>  <value prefix>
>

>  <quantitative readout>
0.0425

$$$$

Hello, the source for this data is PubChem BioAssay AID1996, in case you need it.
